# SYSTEM NAME: human A2a receptor (Homo sapiens, UniProt P29274)
# Sequence (P29274 whole entry): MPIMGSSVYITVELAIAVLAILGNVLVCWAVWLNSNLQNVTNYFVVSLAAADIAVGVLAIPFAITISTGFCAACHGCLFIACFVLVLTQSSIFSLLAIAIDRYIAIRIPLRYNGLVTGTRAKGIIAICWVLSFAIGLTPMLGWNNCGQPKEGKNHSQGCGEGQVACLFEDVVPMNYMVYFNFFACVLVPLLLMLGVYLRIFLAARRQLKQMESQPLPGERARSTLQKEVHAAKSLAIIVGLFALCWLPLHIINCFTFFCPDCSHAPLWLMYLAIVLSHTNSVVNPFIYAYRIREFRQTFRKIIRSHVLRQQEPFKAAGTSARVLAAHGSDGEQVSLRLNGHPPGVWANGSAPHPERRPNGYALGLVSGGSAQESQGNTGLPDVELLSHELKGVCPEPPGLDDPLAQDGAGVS
Just a reminder that ties go to label 0: only Ki strictly below 9 nM counts as label 1.

COMPOUND	ASSIGNED LABEL
Cc1cnn(-c2nc(N)c(C(=O)NCc3ccccc3C(F)(F)F)nc2Cl)c1	label 0
Cc1nc(C(=O)NCc2ccccc2O)c(N)nc1-c1ncco1	label 1
Cc1nc(C(=O)NC2CCc3c(Cl)ccnc32)c(N)nc1-c1ncco1 (single isomer, unassigned) [Ex-244A]	label 1
Cc1ccc2nc(CNC(=O)c3nc(C)c(-c4ncco4)nc3N)cn2c1	label 0
Cc1cc(C(F)(F)F)cnc1CNC(=O)c1nc(C)c(-c2ncco2)nc1N	label 1
CCn1ncc2c(CNC(=O)c3nc(C)c(-c4ncco4)nc3N)cccc21	label 1
Cc1nc(C(=O)N[C@@H]2c3ccccc3C[C@H]2O)c(N)nc1-c1ncco1	label 1
Cc1nc(C(=O)NCc2ccc(F)cc2)c(N)nc1-c1ncco1	label 1
Cc1nc(C(=O)N[C@@H]2CCc3ccccc32)c(N)nc1-c1ncco1	label 1
Cc1nc(C(=O)NC2c3ncccc3CC2O)c(N)nc1-c1ncco1 (single isomer, unassigned) [Ex-238A]	label 1
Cc1nc(C(=O)NCc2ncc(F)cn2)c(N)nc1-c1ncco1	label 0
CCOCCc1ccc(C)c(CNC(=O)c2nc(C)c(-c3ncco3)nc2N)n1	label 1
Cc1cnn(-c2nc(N)c(C(=O)NCc3cccc4cccnc34)nc2Cl)n1	label 0
Cc1nc(C(=O)NCc2nn(C)cc2C2CC2)c(N)nc1-c1ncco1	label 1
Cc1nc(C(=O)NC2CCCc3cccnc32)c(N)nc1-c1ncco1 (single isomer, unassigned) [Ex-230A]	label 1
Cc1cnnc(CNC(=O)c2nc(C)c(-c3ncco3)nc2N)c1	label 0
Cc1nc(C(=O)NCc2ccc(F)cc2F)c(N)nc1-c1cnco1	label 1
Nc1ccccc1CNC(=O)c1nc(Cl)c(-n2nccn2)nc1N	label 0
Cc1nc(C(=O)NC2CCCC(O)CC2)c(N)nc1-c1ncco1 (single isomer, unassigned) [Ex-165A]	label 0
Cc1nc(C(=O)NCc2nc3ccccc3[nH]2)c(N)nc1-c1ncco1	label 1
Cc1nc(C(=O)NCc2ccc[n+]([O-])c2)c(N)nc1-c1ncco1	label 0
Cc1nc(C(=O)NCc2ncc(C(F)(F)F)cc2C2CC2)c(N)nc1-c1ncco1	label 1
CCc1cc(C(F)(F)F)cnc1CNC(=O)c1nc(C)c(-c2ncco2)nc1N	label 1
Cc1nc(C(=O)NCc2ncccc2C(F)(F)F)c(N)nc1-c1cnco1	label 1
CCC(NC(=O)c1nc(C)c(-c2ncco2)nc1N)c1ccccn1 (single isomer, unassigned) [Ex-94B]	label 0
Cc1nc(C(=O)NCc2cccnc2O)c(N)nc1-c1ncco1	label 1
Cc1nc(C(=O)NC2CCc3ccccc3C2)c(N)nc1-c1ncco1 (single isomer, unassigned) [Ex-233B]	label 1
Cc1nc(C(=O)NC2CC(O)c3cccnc32)c(N)nc1-c1ncco1 (centres unmarked) [Ex-240B]	label 1
Cc1nc(C(=O)NCc2ccc(C(C)C)cc2)c(N)nc1-c1ncco1	label 1
Cc1nc(C(=O)NC2CCCc3cnccc32)c(N)nc1-c1ncco1 (single isomer, unassigned) [Ex-84A]	label 0
Cc1ccn(-c2nc(N)c(C(=O)N[C@@H]3CCc4ccccc43)nc2Cl)n1	label 0
Cc1cccnc1CNC(=O)c1nc(Cl)c(-n2nccn2)nc1N	label 1
